Catalogue of MIC readings, one per entry.
Test system: Candida albicans
assayProtocol: Antimicrobial activity against Candida albicans PTCC 5027 after 24 hr by Alamar blue assay
Format: functional
reportedConditions: PTCC 5027, 24 h

Entry CC1=C(C(=O)Nc2cccnc2)C(c2cccs2)NC(=O)N1 (stereo not given) needs its MIC filled in; supply it. > 512 mg/L

Entry CC1=C(C(=O)OCC(C)C)C(c2cccs2)NC(S)=N1 (stereo not given) needs its MIC filled in; supply it. > 512 mg/L

Entry CC1=C(C(=O)Nc2ccc(Cl)cc2)C(c2cccs2)NC(=O)N1 (stereo not given) needs its MIC filled in; supply it. > 512 mg/L

Entry CC1=C(C(=O)OC(C)C)C(c2cccs2)NC(S)=N1 (stereo not given) needs its MIC filled in; supply it. > 512 mg/L

Entry CSc1ncc(C2NC(=O)NC(C)=C2C(=O)Nc2ccc(Cl)cc2)n1Cc1ccccc1 (stereo not given) needs its MIC filled in; supply it. 256 mg/L

Entry CC1=C(C(=O)Nc2cccc(Cl)c2)C(c2cccs2)NC(=O)N1 (stereo not given) needs its MIC filled in; supply it. > 512 mg/L

* * *

Test system: Pseudomonas aeruginosa
assayProtocol: Antimicrobial activity against Pseudomonas aeruginosa PTCC 1074 after 24 hr by Alamar blue assay
Type: functional
reportedConditions: PTCC 1074, 24 h
readout: MIC

Use the examples below as a reference point.
>>> observedresult("CC1=C(C(=O)OC(C)C)C(c2cccs2)NC(S)=N1 (stereo not drawn)")
"> 512 µg/mL"
>>> observedresult("CC1=C(C(=O)OCC(C)C)C(c2cccs2)NC(S)=N1 (stereo not drawn)")
"> 512 µg/mL"

Give measured MIC for CSc1ncc(C2NC(=O)NC(C)=C2C(=O)Nc2ccccn2)n1Nc1ccccc1 (stereo not drawn) (Pseudomonas aeruginosa). > 512 µg/mL

* * *

System: Aspergillus niger
assayProtocol: Antimicrobial activity against Aspergillus niger 5021 after 24 hr by Alamar blue assay
Assay type: functional
reportedConditions: Aspergillus niger, 5021, 24 h
readout: MIC

Entry CC1=C(C(=O)Nc2cccnc2)C(c2cccs2)NC(=O)N1 (configuration not stated) needs its MIC filled in; supply it. > 512 µg/mL

Entry CSc1ncc(C2NC(=O)NC(C)=C2C(=O)Nc2ccccn2)n1Cc1ccccc1 (configuration not stated) needs its MIC filled in; supply it. 128 µg/mL

Entry CC(=O)N1CCN(c2ccc(OCC3COC(Cn4ccnc4)(c4ccc(Cl)cc4Cl)O3)cc2)CC1 (configuration not stated) [KETOCONAZOLE] needs its MIC filled in; supply it. 4 µg/mL

Entry CC1=C(C(=O)Nc2ccc(Cl)cc2)C(c2cccs2)NC(=O)N1 (configuration not stated) needs its MIC filled in; supply it. > 512 µg/mL

Entry CC1=C(C(=O)OCC(C)C)C(c2cccs2)NC(S)=N1 (configuration not stated) needs its MIC filled in; supply it. > 512 µg/mL

Entry CC1=C(C(=O)Nc2ccccn2)C(c2cccs2)NC(=O)N1 (configuration not stated) needs its MIC filled in; supply it. > 512 µg/mL

Entry CC1=C(C(=O)OC(C)C)C(c2cccs2)NC(S)=N1 (configuration not stated) needs its MIC filled in; supply it. > 512 µg/mL

Entry CC1=C(C(=O)Nc2ccccc2Cl)C(c2cccs2)NC(=O)N1 (configuration not stated) needs its MIC filled in; supply it. > 512 µg/mL

Entry CCCCOC(=O)C1=C(C)NC(=S)NC1c1cccs1 (configuration not stated) needs its MIC filled in; supply it. > 512 µg/mL

Entry CSc1ncc(C2NC(=O)NC(C)=C2C(=O)Nc2cccnc2)n1Cc1ccccc1 (configuration not stated) needs its MIC filled in; supply it. 128 µg/mL

Entry CSc1ncc(C2NC(=O)NC(C)=C2C(=O)Nc2ccccc2Cl)n1Nc1ccccc1 (configuration not stated) needs its MIC filled in; supply it. 128 µg/mL

Entry CC1=C(C(=O)Nc2cccc(Cl)c2)C(c2cccs2)NC(=O)N1 (configuration not stated) needs its MIC filled in; supply it. > 512 µg/mL
